Ref: PubChem BioAssay AID1259407

tested on: CCRIS mutagenicity, Ames/micronucleus/aberration tests; assay: CCRIS mutagenicity studies; details: Test System: AMES SALMONELLA TYPHIMURIUM; Strain/Indicator: TA98; Metabolic Activation: NONE; Method: STANDARD PLATE
The source made the active and inactive calls. The rule behind the calls is not given here.
measured-endpoint: mutagenic call

Write mutagenic call of "Cc1ccc(NC(=O)N(C)C)cc1Cl" ; system used: CCRIS mutagenicity, Ames/micronucleus/aberration tests
inactive; negative

Write mutagenic call of "CCCCCCCCCCCCCCCCCCO" ; system used: CCRIS mutagenicity, Ames/micronucleus/aberration tests
inactive; negative

Write mutagenic call of "Clc1cccnc1Cl" ; system used: CCRIS mutagenicity, Ames/micronucleus/aberration tests
inactive; negative

Write mutagenic call of "O=C(O)c1ccccc1[O-].O=C(O)c1ccccc1[O-].O=C(O)c1ccccc1[O-].[Cr+3]" ; system used: CCRIS mutagenicity, Ames/micronucleus/aberration tests
inactive; negative

---
Write mutagenic call of "BrCc1ccc2c3c(cccc13)-c1ccccc1-2" ; system used: CCRIS mutagenicity, Ames/micronucleus/aberration tests
active; positive

Write mutagenic call of "CCc1ccc(/C=C/c2ccc([N+](=O)[O-])cc2)cc1" ; system used: CCRIS mutagenicity, Ames/micronucleus/aberration tests
active; positive

Write mutagenic call of "O=[N+]([O-])c1ccc2c(c1)-c1cccc3cccc-2c13" ; system used: CCRIS mutagenicity, Ames/micronucleus/aberration tests
active; positive

Write mutagenic call of "CS(=O)(=O)OCCCCOS(C)(=O)=O" ; system used: CCRIS mutagenicity, Ames/micronucleus/aberration tests
inactive; negative

Write mutagenic call of "CCN(CC)c1cc(NC(C)=O)c(N=Nc2c(Br)cc([N+](=O)[O-])cc2[N+](=O)[O-])cc1OC" ; system used: CCRIS mutagenicity, Ames/micronucleus/aberration tests
active; positive

###

System: CCRIS mutagenicity, Ames/micronucleus/aberration tests
Assay: CCRIS mutagenicity studies
Settings: Test System: AMES SALMONELLA TYPHIMURIUM; Strain/Indicator: TA98; Metabolic Activation: NONE; Method: STANDARD PLATE
Text: The CCRIS database contains chemical records with carcinogenicity, mutagenicity, tumor promotion, and tumor inhibition test results. It was developed by the National Cancer Institute (NCI). Data are derived from studies cited in primary journals, current awareness tools, NCI reports, and other sources. Test results have been reviewed by experts in carcinogenesis and mutagenesis. CCRIS provides historical information from the years 1985 - 2011. It is no longer updated. […]
Activity calls are given as the source filed them. The rule behind the calls is not given here.
measured-endpoint: mutagenic call

See these solved cases before continuing.
Provide measured mutagenic call value, entry: C=C(C)C(=O)OCCOC(=O)NCCC(C)CC(C)(C)CNC(=O)OCCOC(=O)C(=C)C (stereo not drawn)
inactive; negative

Provide measured mutagenic call value, entry: "Clc1cccc2c1oc1ccccc12"
inactive; negative

Provide measured mutagenic call value, entry: O=S1OCC2C(CO1)C1(Cl)C(Cl)=C(Cl)C2(Cl)C1(Cl)Cl (stereo not drawn)
inactive; negative

Provide measured mutagenic call value, entry: "CC(C)C[C@@H]1NC(=O)CNC1=O"
inactive; negative

---
Provide measured mutagenic call value, entry: "COc1cc(S(=O)(=O)O)c(C)cc1N=Nc1c(O)ccc2cc(S(=O)(=O)O)ccc12"
inactive; negative

Provide measured mutagenic call value, entry: "O[C@@H]1C=Cc2c(ccc3c2ccc2ccccc23)[C@H]1O"
inactive; negative

Provide measured mutagenic call value, entry: "CN(CCO)CCO"
inactive; negative

Provide measured mutagenic call value, entry: "C[C@@H]1O[C@@H](O[C@H]2C[C@](O)(C(=O)CO)Cc3c(O)c4c(c(O)c32)C(=O)c2ccccc2C4=O)C[C@H](N)[C@@H]1O"
active; positive

Provide measured mutagenic call value, entry: "O=C(O)[C@H](O)[C@@H](O)C(=O)O"
inactive; negative

Provide measured mutagenic call value, entry: "O=C(CBr)c1oc([N+](=O)[O-])c(-c2ccccc2)c1-c1ccccc1"
active; positive

Provide measured mutagenic call value, entry: "O=C1c2ccc3ccccc3c2-c2c1ccc1ccccc21"
inactive; negative

Provide measured mutagenic call value, entry: "NC(=O)CCC(=O)Nc1ccc(Cl)c(Cl)c1Cl"
inactive; negative

Provide measured mutagenic call value, entry: "CN(N=O)C(=O)c1c(N(C)C(=O)OC(C)(C)C)ncn1C"
inactive; negative

Provide measured mutagenic call value, entry: "CCC(=O)Nc1ccc(Cl)c(Cl)c1"
inactive; negative

Provide measured mutagenic call value, entry: "CC1(C)C[C@H]2C=C(C=O)[C@]34C[C@]3(C(=O)O[C@@H]4O)[C@H]2C1"
active; positive

Provide measured mutagenic call value, entry: O=Nn1cc(CC(O)C(=O)O)c2ccccc21 (stereo not drawn)
active; positive

Provide measured mutagenic call value, entry: "COc1ccc2c(c1)[C@H]1CCCC[C@@H]1[C@@H]1O[C@H]21"
inactive; negative

Provide measured mutagenic call value, entry: "O=C(/C=C/c1ccc(Br)cc1)c1ccccc1"
inactive; negative

Provide measured mutagenic call value, entry: "Br/C=C/Br"
active; positive

Provide measured mutagenic call value, entry: "CCN(CCCl)CCCNc1c2ccccc2nc2c1ccc1ccccc12"
active; positive

Provide measured mutagenic call value, entry: "CN1C[C@H](C(=O)N[C@]2(C)O[C@@]3(O)[C@@H]4CCCN4C(=O)[C@H](Cc4ccccc4)N3C2=O)C=C2c3cccc4[nH]cc(c34)C[C@H]21"
inactive; negative

Provide measured mutagenic call value, entry: "CCCCOc1cc(N=Nc2ccc(N(CC)CC)cc2)ccc1N=Nc1c(S(=O)(=O)O)cc2ccc(N)cc2c1O"
inactive; negative

###

tested on: CCRIS mutagenicity, Ames/micronucleus/aberration tests; assay: CCRIS mutagenicity studies; details: Test System: AMES SALMONELLA TYPHIMURIUM; Strain/Indicator: TA98; Metabolic Activation: RAT, LIVER, S-9, AROCLOR 1254; Method: PREINCUBATION
The source made the active and inactive calls. How the calls were made is not given here.
measured-endpoint: mutagenic call

See these solved cases before continuing.
Provide measured mutagenic call value, entry: "O=[N+]([O-])c1ccc(Nc2ccc(N=C=S)cc2)cc1"
inactive; negative

Provide measured mutagenic call value, entry: "COc1ccc(OC)cc1"
inactive; negative

Provide measured mutagenic call value, entry: "Oc1ccc(O)c(O)c1"
inactive; negative

Provide measured mutagenic call value, entry: "Cc1c(C)c([N+](=O)[O-])c(C(C)(C)C)c([N+](=O)[O-])c1C"
inactive; negative

Provide measured mutagenic call value, entry: "CC(C)[N+](=O)[O-]"
active; positive

---
Provide measured mutagenic call value, entry: "O=NN1CCSC1"
inactive; negative

###

system: CCRIS mutagenicity, Ames/micronucleus/aberration tests; experiment: CCRIS mutagenicity studies; details: Test System: AMES SALMONELLA TYPHIMURIUM; Strain/Indicator: TA100; Metabolic Activation: RAT, LIVER, S-9, AROCLOR 1254; Method: PREINCUBATION
Active and inactive are the calls of the source. How the calls were made is not given here.
Write down one outcome, taken from 1 for active, -1 for inactive

Which result was noted for this compound in the test: "CCN(CC)C(=S)SSC[C@H](NC(C)=O)C(=O)O"
-1

Which result was noted for this compound in the test: "Fc1ccc2c3c(ccc2c1)-c1cccc2cccc-3c12"
1

Which result was noted for this compound in the test: "Oc1cc(O)c2cc(O)c(-c3cc(O)c(O)c(O)c3)[o+]c2c1"
-1

Which result was noted for this compound in the test: "O=c1[nH]c(=O)n([C@H]2C[C@H](O)[C@@H](CO)O2)cc1CCCCl"
-1

Which result was noted for this compound in the test: "Fc1cnc2ccccc2c1"
-1

Which result was noted for this compound in the test: "Clc1cc2c(cc1Cl)Oc1cc(Cl)c(Cl)cc1O2"
-1

Which result was noted for this compound in the test: "Nc1ccc2c(n1)[nH]c1ccccc12"
1

Which result was noted for this compound in the test: "CCN(CC)CC(=O)Nc1c(C(=O)c2ccccc2F)c(C)nn1C"
1

Which result was noted for this compound in the test: "CSSC"
-1

Which result was noted for this compound in the test: "Cc1cc2c(O)cccc2c2cc3c(cc12)C=C[C@H](O)[C@H]3O"
1

Which result was noted for this compound in the test: "Oc1ccc(O)c(O)c1"
-1

Which result was noted for this compound in the test: "CS(C)(=O)=O"
-1

###

Test system: CCRIS mutagenicity, Ames/micronucleus/aberration tests
Assay: CCRIS mutagenicity studies
Details: Test System: AMES SALMONELLA TYPHIMURIUM; Strain/Indicator: TA1537; Metabolic Activation: RAT, LIVER, S-9, AROCLOR 1254; Method: STANDARD PLATE
Excerpt: The CCRIS database contains chemical records with carcinogenicity, mutagenicity, tumor promotion, and tumor inhibition test results. It was developed by the National Cancer Institute (NCI). Data are derived from studies cited in primary journals, current awareness tools, NCI reports, and other sources. Test results have been reviewed by experts in carcinogenesis and mutagenesis. CCRIS provides historical information from the years 1985 - 2011. It is no longer updated. […]
Active and inactive are the calls of the source. How the calls were made is not given here.
Write down one outcome, taken from label 1 for active, label 0 for inactive

Which result was noted for this molecule in the test: "C[N+]1(C)CCOCC1"
label 0

Which result was noted for this molecule in the test: "COc1cc(O)c2c(c1)C(=O)c1cc(C)cc(O)c1C2=O"
label 1

Which result was noted for this molecule in the test: "O=[N+]([O-])c1cccc(OS(=O)(=O)c2cccc3cccnc23)c1"
label 0

Which result was noted for this molecule in the test: "Cc1cc(O)c2c(c1)C(=O)c1cccc(O)c1C2=O"
label 1

Which result was noted for this molecule in the test: "Cc1ccc2nc(-c3ccc(N)cc3)sc2c1"
label 1

Which result was noted for this molecule in the test: "O=[N+]([O-])C1=Cc2cccc3c2c1cc1ccc2ccccc2c13"
label 1

Which result was noted for this molecule in the test: "S=C([S-])NCCNC(=S)[S-].[Zn+2]"
label 0

Which result was noted for this molecule in the test: "C=Cc1ccc(O)c(OC)c1"
label 0

Which result was noted for this molecule in the test: "O=C1Nc2cc3ccccc3c3c4c(cc1c23)OCO4"
label 1

Which result was noted for this molecule in the test: "O=C1c2cccc(O)c2C(=O)c2c(O)cccc21"
label 1

Which result was noted for this molecule in the test: O=C(c1ccccc1)C(O)c1ccccc1 (stereo not drawn)
label 0

Which result was noted for this molecule in the test: "O=C(O)[C@H](O)[C@@H](O)C(=O)O"
label 0

Which result was noted for this molecule in the test: "CN(C)c1ccc(Cc2ccc(N(C)C)cc2)cc1"
label 0
